System: UO-31 renal
test: NCI-60 one-dose screen, 48 h (100 = growth as untreated, 0 = no growth, -100 = all killed)
measurement_setup: 10 µM unless noted
About 83,000 compounds went through this panel and 20% of them were active in at least one assay; those are over-represented in the sample as a whole.
Below is a list of entries, each paired with its recorded growth value.

| molecule | growth, % |
| --- | --- |
| COc1ccc(S(=O)(=O)n2cc(C3OC(c4cc(OC)c(OC)c(OC)c4)=NN3C(C)=O)c3ccccc32)cc1OC (configuration not stated) | 58.2 |
| N#C/C(=C\c1ccc(F)cc1)n1nc2cccc(F)c2n1 | 41 |
| c1cc(NCCc2ccncc2)nc(-n2cnc3ccccc32)c1 | 74.9 |
| COc1ccc(S(=O)(=O)n2c3ccccc3n3ncc(-c4nnc(C)o4)c23)cc1 | 44.8 |
| Cc1c(C(=O)/C=C/Nc2c(Cl)cc(S(N)(=O)=O)cc2Cl)sc2nc3ccccc3n12 | 89.2 |
| CC1=C(SCCC(=O)OC(C[Se]C2=C(C)C(=O)c3ccccc3C2=O)C(=O)NC(C)(C)C)C(=O)c2ccccc2C1=O (configuration not stated) | -41.2 |
| O=C(COc1ccc(/C=C2\Cc3ccc(Cl)cc3C2=O)cc1)Nc1nc2ccccc2s1 | 69.1 |
| COc1ccc(-c2cc3c4c(nc5ccccc5c4c2)CC(c2cc(OC)c(OC)c(OC)c2)O3)cc1 (configuration not stated) | -26.3 |
| CNC(=O)c1[nH]cc(-c2ccccc2)c1-c1cc(OC)c2c(c1OC)OCO2 | 83.8 |
| N#Cc1c(Nc2cccc(Cl)c2)sc(C(=O)c2cc3cc(Cl)ccc3o2)c1N | 81 |
| NCCCNc1nc2ccccc2c2c(=O)c3cc(OC(F)(F)F)ccc3sc12 | 33.8 |
| Cc1ccc(C(=O)N/N=C/c2cccc(Oc3ccccc3)c2)cn1 | 13.9 |

====

Tested on: MCF7 breast
test: NCI-60 one-dose screen, 48 h (100 = growth as untreated, 0 = no growth, -100 = all killed)
measurement_setup: 10 µM unless noted
Procedure: Growth inhibition of the MCF7 human tumor cell line is measured as a screen for anti-cancer activity. Cells are grown in 96 well plates and exposed to the test compound for 48 hours. Compounds are tested at a single concentration, which is 10^-5 M for most compounds. The reported endpoint is percent growth (GI% or GIPRCNT), where numbers from 0 - 100% represent growth inhibition, and numbers from -100% - 0 represent cell death. For example, a value of 40 represents 60% growth inhibition. […]
This is part of a sample that, as a whole, favours compounds with a hit. Of some 83,000 tested, about 20% had one in any assay.
Checkbox rule: growth lower than 20% = Met; growth not lower than 20% = Not met.

| molecule | qualitative_label |
| --- | --- |
| Clc1ccc(C(/C=C/c2sc(Cl)nc2Cl)=N/Nc2cc(Cl)cc(Cl)c2)cc1 | Not met |
| O=c1c2cc(F)ccc2sc2c(NCCCNCCO)nc3ccc(F)cc3c12 | Not met |
| Cc1ccc2sc3c(NCCCN)nc4ccccc4c3c(=O)c2c1 | Met |
| COc1ccc(C2CC(c3ccc(Nc4nc(Nc5ccc(F)cc5)nc(Nc5ccc(Cl)cc5)n4)cc3)=NN2C(C)=O)cc1 (configuration not stated) | Not met |
| C(=N/Nc1ncnc2nc[nH]c12)/c1ccccn1 | Not met |
| COC(=O)[C@H](C)NC(=O)NC(=O)NC(=O)CI | Met |
| Cc1nn(-c2ccccc2)c(-n2ccnc2)c1/C=N/Nc1nc(-c2ccc(Cl)c(Cl)c2)cs1 | Met |
